Catalogue of melting point readings, one per entry.
Give the number; °C is assumed, so skip it.

>  <Compound>
O=C(NC(C(=O)O)c1c[nH]c2ccc(Br)cc12)c1c[nH]c2ccc(Br)cc12 (stereo not shown) [Compound 12]

>  <Endpoint value>
195

$$$$

Documented melting point of COC(=O)C(NC(=O)c1c[nH]c2ccc(Br)cc12)c1c[nH]c2ccc(Br)cc12 (stereo not shown) [Compound 11] : 126

Input O=C(NC(CO)c1c[nH]c2ccc(Br)cc12)c1c[nH]c2ccc(Br)cc12 (stereo not shown) [Compound 13] . Output melting point: 155

The compound listed as CC(NC(=O)c1c[nH]c2ccc(Br)cc12)c1c[nH]c2ccc(Br)cc12 (stereo not shown) [Compound 4] shows melting point equal to 144

* * *

Reported MIC values follow for various molecules
tested on: Acinetobacter baumanii ATCC 19606; assay: MIC, microdilution method (9.1); type: cell-based; details: Acinetobacter baumannii, ATCC19606, 18 h, read-out: MIC

// solved cases for MIC follow
>  <Molecule>
CC(C)(C)OC(=O)NCC(NC(=O)c1c[nH]c2cc(Br)ccc12)c1c[nH]c2cc(Br)ccc12 (centres unmarked)

>  <MIC>
> 128 µg/mL

$$$$
>  <Molecule>
NCCCCNC(=O)C(NC(=O)c1c[nH]c2ccc(Br)cc12)c1c[nH]c2ccc(Br)cc12 (centres unmarked)

>  <MIC>
> 32 µg/mL

$$$$
>  <Molecule>
CC(C)(C)OC(=O)NCC(NC(=O)C(F)(F)F)c1c[nH]c2ccc(Br)cc12 (centres unmarked)

>  <MIC>
> 128 µg/mL

$$$$

For this molecule ( CC(C)(C)OC(=O)NCC(NC(=O)c1c[nH]c2ccccc12)c1c[nH]c2cc(Br)ccc12 (centres unmarked) ), measured MIC is > 128 µg/mL

MIC for CC(C)(C)OC(=O)NCC(NC(=O)c1c[nH]c2ccccc12)c1c[nH]c2ccccc12 (centres unmarked) is > 128 µg/mL

Reported MIC ( O=C(NC(C(=O)NCCCCO)c1c[nH]c2ccc(Br)cc12)c1c[nH]c2ccc(Br)cc12 (centres unmarked) ) = > 32 µg/mL

Record CC(NC(=O)c1c[nH]c2ccc(Br)cc12)c1c[nH]c2ccc(Br)cc12 (centres unmarked) . Reported MIC: > 128 µg/mL

Lab book: MIC of CC(C)(C)OC(=O)NCC(NC(=O)c1c[nH]c2ccc(Br)cc12)c1c[nH]c2ccc(Br)cc12 (centres unmarked) noted as > 128 µg/mL

* * *

system: Bacillus subtilis CIP 5262; test: MIC, microdilution method (9.1); format: cell-based; details: CIP5262, 18 h, read-out: MIC
The entries below are paired with their reported MIC.

Worked cases, answers included:
>  <Molecule>
NCCCCNC(=O)C(NC(=O)c1c[nH]c2ccc(Br)cc12)c1c[nH]c2ccc(Br)cc12 (stereo not drawn)

>  <System under test>
Bacillus subtilis CIP 5262

>  <MIC>
> 128 µg/mL

$$$$
>  <Molecule>
Cn1cc(C(=O)NC(CNC(=O)OC(C)(C)C)c2c[nH]c3ccc(Br)cc23)c2cc(Br)ccc21 (stereo not drawn)

>  <System under test>
Bacillus subtilis CIP 5262

>  <MIC>
> 128 µg/mL

$$$$
>  <Molecule>
CC(C)(C)OC(=O)NCC(NC(=O)c1ccccc1)c1c[nH]c2ccc(Br)cc12 (stereo not drawn)

>  <System under test>
Bacillus subtilis CIP 5262

>  <MIC>
> 128 µg/mL

$$$$
>  <Molecule>
CC(C)(C)OC(=O)NCC(NC(=O)c1c[nH]c2ccccc12)c1c[nH]c2ccccc12 (stereo not drawn)

>  <System under test>
Bacillus subtilis CIP 5262

>  <MIC>
> 128 µg/mL

$$$$

Lab note: O=C(NC(C(=O)NCCCCO)c1c[nH]c2ccc(Br)cc12)c1c[nH]c2ccc(Br)cc12 (stereo not drawn) gave MIC of > 128 µg/mL

Measured MIC, O=C(NC(C(=O)NCCO)c1c[nH]c2ccc(Br)cc12)c1c[nH]c2ccc(Br)cc12 (stereo not drawn) : > 128 µg/mL

* * *

tested on: S. aureus ATCC 106414 (VISA); assay: MIC, microdilution method (9.1); format: cell-based, Staphylococcus aureus; conditions: Staphylococcus aureus, read after 18 h, read-out: MIC
Entries and their MIC
Field: value (include unit after the number)

>  <Compound>
CC(C)(C)OC(=O)NCC(NC(=O)c1c[nH]c2cc(Cl)ccc12)c1c[nH]c2ccc(Cl)cc12 (stereo not drawn)

>  <Endpoint value>
4 µg/mL

$$$$
>  <Compound>
CC(C)(C)OC(=O)NCC(NC(=O)c1c[nH]c2ccc(Br)cc12)c1c[nH]c2cc(Br)ccc12 (stereo not drawn)

>  <Endpoint value>
1 µg/mL

$$$$

Kindly review the next compound as well.
S. aureus ATCC 106414 (VISA) data for CC(C)(C)OC(=O)NCC(NC(=O)c1c[nH]c2ccccc12)c1c[nH]c2ccc(Br)cc12 (stereo not drawn) ; its MIC: 8 µg/mL

* * *

inhibition at 1 µM overview
system: KB (human mouth carcinoma); assay: In vitro cytotoxicity; format: cell-based; settings: 10^−6 M, read-out: % of cellular growth inhibition
Quick note: give the figure in %, leave out the unit.

Before answering, review these 5 worked examples.
>  <Compound>
CC(C)(C)OC(=O)NCC(NC(=O)c1c[nH]c2cc(Cl)ccc12)c1c[nH]c2ccc(Cl)cc12 (stereo not drawn) [Compound 6b]

>  <Endpoint unit>
%

>  <Endpoint value>
2

$$$$
>  <Compound>
CC(C)(C)OC(=O)NCC(NC(=O)c1c[nH]c2cc(Br)ccc12)c1c[nH]c2cc(Br)ccc12 (stereo not drawn) [Compound 3i]

>  <Endpoint unit>
%

>  <Endpoint value>
3

$$$$
>  <Compound>
CC(C)(C)OC(=O)NCC(NC(=O)c1c[nH]c2ccccc12)c1c[nH]c2cc(Br)ccc12 (stereo not drawn) [Compound 3d]

>  <Endpoint unit>
%

>  <Endpoint value>
0

$$$$
>  <Compound>
Cn1cc(C(=O)NC(CNC(=O)OC(C)(C)C)c2c[nH]c3ccc(Br)cc23)c2cc(Br)ccc21 (stereo not drawn) [Compound 7]

>  <Endpoint unit>
%

>  <Endpoint value>
2

$$$$
>  <Compound>
CC(C)(C)OC(=O)NCC(NC(=O)c1c[nH]c2ccc(Cl)cc12)c1c[nH]c2ccc(Cl)cc12 (stereo not drawn) [Compound 6a]

>  <Endpoint unit>
%

>  <Endpoint value>
4

$$$$

Please turn your attention to the following entry.
Reported inhibition at 1 µM for CC(C)(C)OC(=O)NCC(NC(=O)c1c[nH]c2cc(Br)ccc12)c1c[nH]c2ccccc12 (stereo not drawn) [Compound 3e] was 0

* * *

tested on: S. aureus ATCC 25923; experiment: MIC, microdilution method (9.1); assay type: cell-based, Staphylococcus aureus; details: Staphylococcus aureus, ATCC25923, read after 18 h, read-out: MIC
Assay metric: MIC

>  <Compound>
CC(C)(C)OC(=O)NCC(NC(=O)c1ccccc1)c1c[nH]c2ccc(Br)cc12 (stereo not drawn)

>  <MIC>
> 128 µg/mL

$$$$
>  <Compound>
CC(C)(C)OC(=O)NCC(NC(=O)c1cccnc1)c1c[nH]c2ccc(Br)cc12 (stereo not drawn)

>  <MIC>
> 128 µg/mL

$$$$

Now for another entry.
CC(C)(C)OC(=O)NCC(NC(=O)C(F)(F)F)c1c[nH]c2ccc(Br)cc12 (stereo not drawn) yielded MIC of > 128 µg/mL

* * *

tested on: S. agalactiae (group B) ATCC 12400; test: MIC, microdilution method (9.1); assay type: cell-based, Streptococcus agalactiae; conditions: Streptococcus agalactiae, ATCC12400, 18 h, read-out: MIC
Below: a set of entries, each annotated with reported MIC.

Illustrative cases are given below, each with its answer.
>  <Compound>
CC(C)(C)OC(=O)NCC(NC(=O)C(F)(F)F)c1c[nH]c2ccc(Br)cc12 (stereo not drawn)

>  <Endpoint value>
> 128 µg/mL

$$$$
>  <Compound>
NCCCCNC(=O)C(NC(=O)c1c[nH]c2ccc(Br)cc12)c1c[nH]c2ccc(Br)cc12 (stereo not drawn)

>  <Endpoint value>
> 128 µg/mL

$$$$

Below: the item to evaluate.
According to the records, this compound Cn1cc(C(=O)NC(CNC(=O)OC(C)(C)C)c2c[nH]c3ccc(Br)cc23)c2cc(Br)ccc21 (stereo not drawn) displays MIC of > 128 µg/mL

* * *

tested on: S. aureus CIP 65.6; assay: MIC, microdilution method (9.1); type: cell-based, Staphylococcus aureus; conditions: Staphylococcus aureus, CIP65, read after 18 h, read-out: MIC
Assay metric: MIC

>  <Compound>
O=C(NC(C(=O)NCCO)c1c[nH]c2ccc(Br)cc12)c1c[nH]c2ccc(Br)cc12 (stereo not shown)

>  <MIC>
> 32 µg/mL

$$$$

// recorded MIC for CC(C)(C)OC(=O)NCC(NC(=O)c1cccnc1)c1c[nH]c2ccc(Br)cc12 (stereo not shown) : > 128 µg/mL

Input CC(NC(=O)c1c[nH]c2ccc(F)cc12)c1c[nH]c2ccc(Br)cc12 (stereo not shown) . Output MIC: > 32 µg/mL

Looking up O=C(NC(C(=O)O)c1c[nH]c2ccc(Br)cc12)c1c[nH]c2ccc(Br)cc12 (stereo not shown) , I see its MIC listed as > 32 µg/mL
